Origin of measurements: ChEMBL document CHEMBL1201862

# Test system: OVCAR-8
# procedure_text: NCI tumour cell line growth inhibition, 48 h
Counter-ions that a name gives are not always drawn. Calls of active or inactive are those of the source. Cut-off read from the data, not from the text of the source: active = GI50 up to about 1.1 µM and inactive = higher.
endpoint: GI50

compound=O=c1c2c3c(sc2nc2n1NC=NN2)CCCC3 endpoint=GI50 assay_value="24.7 µM (inactive)"
compound=Cc1c(C)c2cc3c(=O)c(CCl)coc3c(C)c2oc1=O endpoint=GI50 assay_value="> 100 µM (inactive)"
compound="CC[C@]12CN3CCc4c([nH]c5ccccc45)[C@@](C(=O)OC)(c4cc5c(cc4OC)N(C)[C@H]4[C@@](O)(C(=O)OC)[C@H](OC(C)=O)[C@]6(CC)C=CCN7CC[C@]54[C@@H]76)CC(C3)[C@H]1O2 (some centres undefined) [VINLEUROSINE SULFATE]" endpoint=GI50 assay_value="0.449 µM (active)"
compound=Cc1ccc(CNNC(=O)c2cc[n+]([BH2-]C#N)cc2)cc1 endpoint=GI50 assay_value="> 100 µM (inactive)"
compound=O=c1cc(-c2ccccc2)nc(/C=C(\O)c2ccncc2)n1-c1ccccc1 endpoint=GI50 assay_value="> 100 µM (inactive)"
compound=Cc1cccc2c1[nH]c1[nH]c(=O)[nH]c(=O)c12 endpoint=GI50 assay_value="> 100 µM (inactive)"
compound=Oc1c2c(nc3cc4c(cc13)OCO4)-c1ccccc1CCC2 endpoint=GI50 assay_value="48.5 µM (inactive)"
compound="COc1ccc(C2CC3(c4ccccc4)ON=C(c4ccccc4)N3c3ccccc3S2)cc1 (centres undefined)" endpoint=GI50 assay_value="> 100 µM (inactive)"
compound=O=[N+]([O-])/C(C(Cl)=C(Cl)Cl)=C(/Sc1ccccc1)N1CCCCC1 endpoint=GI50 assay_value="> 58.2 µM (inactive)"
